Assay System: Shaker-IR KV channel (Drosophila melanogaster, UniProt P08510, DEL6-46)
Method Summary: cell-based
Value Kind: pIC50
The meaning of pIC50 here: minus log10 of the concentration in molar units.

Field pIC50 (entry Nc1cncc(N)c1N ) reads 3.16

Field pIC50 (entry Nc1ccncc1N [Compound 3, 3,4 diaminopyridine, reference compound] ) reads 4.57

###

Assay System: Shaker-IR KV channel (Drosophila melanogaster, UniProt P08510, DEL6-46)
Method Summary: cell-based
Assay Conditions: read-out: K0.5 (compound concentration required to achieve 50% inhibition)
Value Kind: pIC50
The meaning of pIC50 here: minus log10 of the concentration in molar units.

Field pIC50 (entry C#CC[n+]1ccc(N)c(N)c1 [Compound 11, 3,4-diamino-1-(prop-2-ynyl)pyridinium] ) reads 4.65

###

Method Summary: in vivo
Assay Conditions: male, CD-1, mouse, ip, 3 mg/kg
What half-life was measured for each of the following?
The answer is to be given in min; state only the numeric part.

Field half-life (entry Nc1ccncc1N [Compound 3, 3,4 diaminopyridine, reference compound] ) reads 20.4

Field half-life (entry Nc1cncc(N)c1N [Compound 5, 3,4,5-Triaminopyridine] ) reads 18.6
